Item-by-item account of viability, T/C
Tested on: 217524-143-R1-J4-PDC spheroids with HUVEC/MSC, viability;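 further: spheroids exposed to agents for seven days before reading; 100% = DMSO vehicle control viability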
Test: Anticancer human tumor 217524-143-R1-J4-PDC patient-derived pancreatic carcinoma cell line growth inhibition [CLK]
Details: second compound 0.1 µM; first compound 1 µM; stronger effect = lower value
Attribute measured: viability, T/C (%)

>  <Compound>
C=C(F)C(=O)N1CCN(c2nc(OCC3CCCN3C)nc3c2CCN(c2cccc4cccc(Cl)c24)C3)CC1CC#N (stereo not drawn) + CN1CCN(c2cc(C(=O)Nc3cc4cc(-c5cnn(C)c5)ccc4cn3)ccn2)CC1

>  <Number>
50.8

$$$$
>  <Compound>
CCCS(=O)(=O)Nc1ccc(F)c(C(=O)c2c[nH]c3ncc(-c4ccc(Cl)cc4)cc23)c1F + CNC(=O)c1ccc(Nc2nc(OC3CCCC3)c3c(-c4ccc5nc(C)oc5c4)c[nH]c3n2)c(OC)c1

>  <Number>
67.3

$$$$
>  <Compound>
CCN1CCN(Cc2ccc(Nc3ncc(F)c(-c4cc(F)c5nc(C)n(C(C)C)c5c4)n3)nc2)CC1 + CN1CCN(c2cc(C(=O)Nc3cc4cc(-c5cnn(C)c5)ccc4cn3)ccn2)CC1

>  <Number>
32.6

$$$$
